# TGI per record follows
System: SF-539 CNS
measurementNotes: NCI tumour cell line growth inhibition, 48 h

| molecule | TGI |
| --- | --- |
| CCCCCCCCCCCCCCCCOP(=O)([O-])OCC[N+](C)(C)C1CC(C)(C)N(O)C(C)(C)C1 | > 100 µM |
| O[C@@H]1[C@H](OC2c3ccccc3-c3ccccc32)[C@H](OCc2ccccc2)[C@@H]2OC[C@H]1O2 | 81.7 µM |
| O=[N+]([O-])c1ccc(/C=C/c2ccc(/C=C/c3ccc([N+](=O)[O-])cc3[N+](=O)[O-])cc2)c([N+](=O)[O-])c1 | > 100 µM |

// TGI lookup, key: COC(=O)c1ccc(CCC2=CC(=O)C=CC2=O)cc1 25.6 µM

Cited source for all entries: PubChem BioAssay (NCI)
